Assayed target: T1, mouse transferrin receptor (mTfR) fused to EGFP, on CHO cells (mouse, UniProt Q62351 1-763)
T1 construct: whole, on cells; also called mouse TfR; CHO-mTfR-EGFP; not shown: EGFP
T1 sequence (Q62351 whole entry, the tested form may be a part): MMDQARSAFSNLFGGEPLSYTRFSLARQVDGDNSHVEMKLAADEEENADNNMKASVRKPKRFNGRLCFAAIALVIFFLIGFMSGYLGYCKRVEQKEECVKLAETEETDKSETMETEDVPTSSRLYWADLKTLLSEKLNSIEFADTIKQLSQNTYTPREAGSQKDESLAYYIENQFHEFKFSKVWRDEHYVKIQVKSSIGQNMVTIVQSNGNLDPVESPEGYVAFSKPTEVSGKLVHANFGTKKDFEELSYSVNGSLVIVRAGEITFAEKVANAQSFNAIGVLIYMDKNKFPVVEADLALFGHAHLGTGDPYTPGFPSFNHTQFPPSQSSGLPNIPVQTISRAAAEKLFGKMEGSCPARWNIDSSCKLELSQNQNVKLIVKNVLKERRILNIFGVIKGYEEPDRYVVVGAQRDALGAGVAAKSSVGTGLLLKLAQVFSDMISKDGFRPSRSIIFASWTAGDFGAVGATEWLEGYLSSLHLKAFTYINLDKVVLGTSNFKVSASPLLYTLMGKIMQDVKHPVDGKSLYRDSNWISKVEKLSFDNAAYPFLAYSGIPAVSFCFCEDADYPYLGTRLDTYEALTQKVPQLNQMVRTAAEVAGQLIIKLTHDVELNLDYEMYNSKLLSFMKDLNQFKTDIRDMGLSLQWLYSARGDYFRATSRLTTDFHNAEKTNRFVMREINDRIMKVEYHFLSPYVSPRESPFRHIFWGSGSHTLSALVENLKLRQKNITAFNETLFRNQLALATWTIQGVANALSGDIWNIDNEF
Test: apparent Kd, flow cytometry, CHO cells
Reported endpoint: Kd

Binder: B8^V38 (VHH) VHH: EVQLVESGGGVVQPGGSLRLSCAASGEIRSINFMRWYRQAPGKQREWVAGFTRTGSTNYPDSAKGRFTISRDNAKNTVYLQIDSLKPEDTAVYYCYMLDTWGQGTQVTVSS
Reported endpoint: Kd
Measurement: 1780 nM
--
Binder: B8^V8 (VHH) VHH: EVQLVESGGGVVQPGGSLRLSCAASGEIFSINFMRWYRQAPGKQREWVAGFTRDGSLNYPDSAKGRFTISRDNAKNTVYLQIDSLKPEDTAVYYCYMLDTWGQGTQVTVSS
Reported endpoint: Kd
Measurement: 8.1 nM
--
Binder: B8^V23 (VHH) VHH: EVQLVESGGGVVQPGGSLRLSCAASGEIFSINFMIWYRQAPGKQREWVAGFTRDGSTNYPDSAKGRFTISRDNAKNTVYLQIDSLKPEDTAVYYCYMLDTWGQGTQVTVSS
Reported endpoint: Kd
Measurement: 1550 nM
--
Binder: B8^V11 (VHH) VHH: EVQLVESGGGVVQPGGSLRLSCAASDEIFSINFMRWYRQAPGKQREWVAGFTRDGSTNYPDSAKGRFTISRDNAKNTVYLQIDSLKPEDTAVYYCYMLDTWGQGTQVTVSS
Reported endpoint: Kd
Measurement: 22 nM
